Data origin, for the record: PubChem BioAssay (NCATS)

# EXPERIMENTAL_PROTOCOL: Quantitative High-Throughput drug screen in 47 multiple myeloma cell lines against the NCATS MIPE library collection: KHM11_PLB cell viability assay (AID 1918962); further: nearly all actives have a fitted effect of over 35% in size
# STUDY_CONDITIONS: KHM11 myeloma cell viability, CellTiter-Glo ATP luminescence, 48 h; series mostly up to 45.8 µM
Inconclusive results are not listed. Activity calls are given as the source filed them. The call rests on the fitted dose curve; in most records, active means well fitted cell-killing curve with a large enough effect; inconclusive means small, poorly fitted or top-dose-only effect, or effect the other way; inactive means no such curve, though single readings can be large or run the other way.
Return exactly one item of true (active), false (inactive)

COc1ccc(C=Cc2cc(OC)c(OC)c(OC)c2)cc1O : false
CC(NCc1ccc2c(c1)nc(NC(=O)c1ccc(-c3cn[nH]c3)s1)n2CC(C)(C)O)C(C)(C)C (stereo unspecified) : true

Shift focus to the following entry.
## Input Could you please tell me the result logged for CCN1CCN(Cc2ccc(-c3cc4c(N[C@H](C)c5ccccc5)ncnc4[nH]3)cc2)CC1 in this assay?
## Output true

---

# EXPERIMENTAL_PROTOCOL: Quantitative High-Throughput drug screen in 47 multiple myeloma cell lines against the NCATS MIPE library collection: KMS28PE_JCRB cell viability assay (AID 1918983); further: nearly all actives have a fitted effect of over 35% in size
# STUDY_CONDITIONS: KMS28PE multiple myeloma viability, CellTiter-Glo ATP, 48 h; series mostly up to 45.8 µM
Results filed as inconclusive are left out. The source made the active and inactive calls. The call rests on the fitted dose curve; in most records, active means well fitted cell-killing curve with a large enough effect; inconclusive means small, poorly fitted or top-dose-only effect, or effect the other way; inactive means no such curve, though single readings can be large or run the other way.
A correct response names exactly one class from active, inactive

Some solved cases for reference:
O=C(c1ccc(Nc2nccc(-c3cc4ccccc4s3)n2)cc1)N1CCC(N2CCCC2)CC1 : active
C=C1C(=CC=C2CCC[C@]3(C)[C@@H]([C@H](C)C=C[C@H](C)C(C)C)CC[C@@H]23)C[C@@H](O)C[C@@H]1O : active
Cc1ccc(C(=O)Nc2ccc(CN3CCN(C)CC3)c(C(F)(F)F)c2)cc1C#Cc1cnc2cccnn12 : active
CCCNC(=O)Nc1ccc(Oc2ncnc3cc(OC)c(OC)cc23)cc1Cl : inactive
Cn1c2ccccc2c2c3c(c4c5ccccc5n(CCC#N)c4c21)CNC3=O : active
COc1cc2c(cc1-c1c(C)noc1C)ncc1[nH]c(=O)n([C@H](C)c3ccccn3)c12 : active

Query molecule follows.
## Input For O=C(O)c1ccc2c(c1)nc(Nc1cccc(Cl)c1)c1ccncc12 , which call appears in the assay record?
## Output active

---

# EXPERIMENTAL_PROTOCOL: qHTS for identification of novel therapeutic agents for treatment of microphthalmiaassociated transcription factor (MiT) renal cell carcinoma (RCC) (AID 1963991)
# STUDY_CONDITIONS: TFE3-RCC UOK109 viability, CellTiter-Glo, 48 h; measured here: UOK109 Z-AUC; stronger effect = lower value
Results filed as inconclusive are left out.
# YES = z-score below -2 (exclusive); NO = z-score at/above -2

The following compounds have reported results that may help.
CN[C@H]1CCc2cc(OC)c(OC)c(OC)c2-c2ccc(OC)c(=O)cc21 : YES
Nc1ccc(S(=O)(=O)Nc2ncccn2)cc1 : NO
COc1ccc(CC2c3cc(OC)c(OC)cc3CC[N+]2(C)CCC(=O)OCCCCCOC(=O)CC[N+]2(C)CCc3cc(OC)c(OC)cc3C2Cc2ccc(OC)c(OC)c2)cc1OC (stereo not drawn) : NO
CC(C)(O)c1cc2nc(-c3cnc(N)nc3)nc(N3CCOCC3)c2s1 : YES
CCOc1ccccc1OCCNC(C)Cc1ccc(OC)c(S(N)(=O)=O)c1 (stereo not drawn) : NO

## Input Consider the compound Cn1c2ccccc2c2c3c(c4c5ccccc5n(CCC#N)c4c21)CNC3=O . Is its z-score strictly less than -2?
## Output NO

## Input hey, is z-score for Nc1ncnc2c1c(-c1cnc3[nH]ccc3c1)nn2C1CCCC1 lower than -2 or not?
## Output YES

## Input Answer whether the compound COc1cc(=C2C=c3ccccc3=N2)[nH]c1=Cc1[nH]c(C)cc1C has z-score strictly less than -2
## Output NO

## Input is_below(z-score, -2) for COC(=O)C1=C(C)NC(C)=C(C(=O)OCCN2CCN(C(c3ccccc3)c3ccccc3)CC2)C1c1cccc([N+](=O)[O-])c1 (stereo not drawn) ?
## Output NO

## Input Record C=CC(=O)Nc1cc2c(Nc3ccc(F)c(Cl)c3)ncnc2cc1C#CC(C)(C)N1CCN(C)CC1 : is its z-score strictly below -2?
## Output YES

## Input Below -2 on z-score? Entry NC(=O)Nc1cc(-c2cccc(F)c2)sc1C(=O)N[C@H]1CCCNC1
## Output NO

## Input Lab note: confirm whether the reported z-score for this compound is below -2, equality not counting. compound: O=C(Nc1ncc(-c2cc(C(F)F)nn2-c2c(Cl)cccc2Cl)s1)C1CC1
## Output NO

## Input Hello, I'm reviewing records and need to know if z-score of Cc1ccc(-c2ncn(-c3ccc(Nc4nccc(-c5cccc(N6CCOCC6)c5)n4)cc3)n2)cn1 is below -2. Could you check?
## Output NO
